// melting point lookup, one value per entry

Examples with their reported melting point follow.
{"columns": ["Smiles", "melting point"],
 "data": [
  ["c1ccc2c(c1)OCCc1c-2n(CCN2CCCCC2)c2ccccc12", "103 °C"],
  ["c1ccc2c(c1)OCCc1c-2n(Cc2ccc(OCCCN3CCCCC3)cc2)c2ccccc12", "129 to 130 °C"],
  ["c1ccc2c(c1)SCCc1c-2n(CCN2CCCCC2)c2ccccc12", "118 °C"],
  ["Oc1ccc2c(c1)c1c(n2CCCCCN2CCCC2)-c2ccccc2SCC1", "217 to 219 °C"],
  ["c1ccc2c(c1)SCCc1c-2n(Cc2ccc(OCCCN3CCCCC3)cc2)c2ccccc12", "70 to 71 °C"],
  ["CCCCN(C)CCCCCn1c2c(c3cc(O)ccc31)CCSc1cc(O)ccc1-2", "134 to 136 °C"]
]}

// next entry
### Prompt In one line, give reported melting point of the entry c1ccc2c(c1)OCCc1c-2n(CCCN2CCCCC2)c2ccccc12 .
### Response 65 to 66 °C
